# tested-on: BG505_(SOSIP.664) Env trimer (HIV-1 BG505 (clade A), SOSIP.664 with …, stabilised)
endpoint-label: binding result

binder	experimental-value
561_01_29 (antibody, V domains shown) VH: QLVQSGGGVRRPGASVKVSCETPEYTFTKYWLHWLRQAPGRGLEWMGVVSPHGGRPMFAFEFRDRLTLTRDIHTTTHYMELRGLTSDDTAVYFCARDSFGETFRGHDQPYQMDLWGGGTTVVVSS VL: EPVLTQSPGTLSLSPGEGVTLSCRARQGFSADHVAWFQKKPGRPPRLLIFETSRRASGTPERFSGGGSGPEYTLTITRVEPEDFAVYYCQSYGSITPLVFGGGTRVDVK	binds
561_02_21 (antibody, V domains shown) VH: QLVQSGGGVKRPGASVKISCETPEYTFTKYWLHWLRQAPGQGLEWMGVVSPHGGRPMFAFEFRDRLTLTRDIHTTTHYMELGGLTLDDTAVYYCARDPFGETFRGREQPYQMDVWGGGTTIVVTS VL: EALLTQSPGTLSLSPGEGATLSCRARQGFSADHVAWFQKKPGRPPRLLIFEASRRASGTPERFSGSGSGPEYTLTITRVEPEDFAVYYCQSYGSITPLVFGGGTRVDVK	binds
561_02_12 (antibody, V domains shown) VH: QLVQSGGGVRRPGASVKISCETPEDTFTKYWLHWLRQAPGQGLEWMGVVSPHGGRPMFAFEFRDRLTLTRDIHTTTHFMELRGLTSDDTAVYYCARDPFGETFRGHDQPYRMDVWGGGTTIVVSS VL: EPVLTQSPGTLSVSPGEGATLSCRARQGFSADHVAWFQKKPGRPPRLLIFEASRRASGTPERFSGSGSGPEYTLTITRVEAEDFAVYYCQSYGSITPLVFGGGTRVDVK	binds

Source of measurements: paper PMC7042716
